Tested On: KDR receptor (Homo sapiens, UniProt P35968)
Sequence (P35968 786-1356 limits assumed): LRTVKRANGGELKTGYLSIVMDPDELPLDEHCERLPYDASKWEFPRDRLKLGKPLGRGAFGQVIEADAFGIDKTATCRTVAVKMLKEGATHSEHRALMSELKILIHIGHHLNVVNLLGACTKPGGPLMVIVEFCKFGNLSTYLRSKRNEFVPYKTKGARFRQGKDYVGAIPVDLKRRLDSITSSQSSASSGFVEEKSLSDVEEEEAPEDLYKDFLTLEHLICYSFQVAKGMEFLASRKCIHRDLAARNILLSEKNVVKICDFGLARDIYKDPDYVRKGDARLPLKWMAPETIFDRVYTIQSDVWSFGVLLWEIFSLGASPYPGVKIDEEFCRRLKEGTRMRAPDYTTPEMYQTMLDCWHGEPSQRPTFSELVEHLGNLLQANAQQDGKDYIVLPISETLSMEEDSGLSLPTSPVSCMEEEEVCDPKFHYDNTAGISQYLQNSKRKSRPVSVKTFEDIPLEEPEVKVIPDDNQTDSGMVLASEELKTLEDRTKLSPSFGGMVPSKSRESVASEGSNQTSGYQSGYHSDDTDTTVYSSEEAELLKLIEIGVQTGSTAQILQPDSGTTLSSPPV
pIC50: −log10 of the molar value.
Metric: pIC50

Ask | pIC50 lookup needed for COc1cc2c(Nc3ccc(Br)cc3F)ncnc2cc1OCC(O)CN1CCN(C)CC1 (stereo not shown) , thanks.
Reply | 7.30 to 7.82
